- ASSAYED_SYSTEM: Lyn (Homo sapiens)
- Construct: purchased Upstate 14-510
- Sequence (P07948 whole entry): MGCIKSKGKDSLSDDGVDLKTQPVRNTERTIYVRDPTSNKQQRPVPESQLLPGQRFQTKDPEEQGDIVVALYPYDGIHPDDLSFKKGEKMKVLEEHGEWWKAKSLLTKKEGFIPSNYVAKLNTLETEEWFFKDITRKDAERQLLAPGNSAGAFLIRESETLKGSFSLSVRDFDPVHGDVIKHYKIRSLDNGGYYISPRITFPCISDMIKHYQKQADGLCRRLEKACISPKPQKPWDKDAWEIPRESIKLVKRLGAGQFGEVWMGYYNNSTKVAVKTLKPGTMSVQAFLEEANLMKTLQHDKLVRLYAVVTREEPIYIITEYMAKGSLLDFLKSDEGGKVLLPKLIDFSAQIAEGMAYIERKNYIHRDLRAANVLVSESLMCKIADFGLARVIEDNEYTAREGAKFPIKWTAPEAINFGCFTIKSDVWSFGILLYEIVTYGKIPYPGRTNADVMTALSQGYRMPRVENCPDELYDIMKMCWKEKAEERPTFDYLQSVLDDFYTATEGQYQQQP
- MEASUREMENT_NOTES: Lyn kinase assay
- Assay type: biochemical
- RUN_PARAMETERS: kinase panel, 10 μM ATP; read-out: Lyn IC50
Counter-ions that a name gives are not always drawn.
MEASURED_ENDPOINT: IC50

1) COCCN1CCN(Cc2ccc(-c3n[nH]c4c3C(=O)c3c(NC(=O)NN5CCOCC5)cccc3-4)cc2)CC1 [Compound B16, dihydrochloride] ... < 100 nM

====

- ASSAYED_SYSTEM: Cdk2 (Homo sapiens, UniProt P24941)
- MEASUREMENT_NOTES: Cdk2 inhibition
- Format: biochemical
pIC50: −log10 of the molar value. Counter-ions that a name gives are not always drawn.
MEASURED_ENDPOINT: pIC50

1. COCCN1CCN(Cc2ccc(-c3n[nH]c4c3C(=O)c3c(NC(=O)NN5CCOCC5)cccc3-4)cc2)CC1 [Compound B16, dihydrochloride] ... > 8.30
2. CC(C)N1CCN(C(=O)COc2ccc(-c3n[nH]c4c3C(=O)c3c(NC(=O)NN5CCOCC5)cccc3-4)cc2)CC1 ... > 7.30
